# System: Escherichia coli TOP10
# Assay Protocol: shrunken log2 fold change of peptide-encoding DNA abundance (4.5 h post-induction vs induction); higher = less antimicrobial activity (less host growth inhibition)
# Assay Setup: time post-induction: 4.5 h; library: site-saturation at positions 5, 18, 19, 20
Assay Metric: shrunken log2 fold change

sequence_input=RRIRQRPPRLPRPRPRPCIFPRP assay_metric="shrunken log2 fold change" recorded_result=-0.142
sequence_input=RRIRHRPPRLPRPRPRPQGQPRP assay_metric="shrunken log2 fold change" recorded_result=0.043
sequence_input=RRIRERPPRLPRPRPRPRNLPRP assay_metric="shrunken log2 fold change" recorded_result=-0.514
sequence_input=RRIRSRPPRLPRPRPRPANVPRP assay_metric="shrunken log2 fold change" recorded_result=0.218
sequence_input=RRIRLRPPRLPRPRPRPSPHPRP assay_metric="shrunken log2 fold change" recorded_result=-0.242
sequence_input=RRIRYRPPRLPRPRPRPRDPPRP assay_metric="shrunken log2 fold change" recorded_result=0.271
sequence_input=RRIRRRPPRLPRPRPRPQKYPRP assay_metric="shrunken log2 fold change" recorded_result=-0.696
sequence_input=RRIRVRPPRLPRPRPRPSHIPRP assay_metric="shrunken log2 fold change" recorded_result=-0.706

###

# Test system: Escherichia coli TOP10
# Assay Protocol: shrunken log2 fold change of peptide-encoding DNA abundance (4.5 h post-induction vs induction); higher = less antimicrobial activity (less host growth inhibition)
# Assay Setup: time post-induction: 4.5 h; library: site-saturation at positions 5, 18, 19, 20
Short version: shrunken log2 fold change at least 0.01 is Y, less is N.

sequence_input=RRIRRRPPRLPRPRPRPPLEPRP class=Y
sequence_input=RRIRSRPPRLPRPRPRPQLYPRP class=N
sequence_input=RRIRIRPPRLPRPRPRPNYHPRP class=N
sequence_input=RRIRMRPPRLPRPRPRPYACPRP class=N
sequence_input=RRIRNRPPRLPRPRPRPHMSPRP class=Y
sequence_input=RRIRQRPPRLPRPRPRPAVQPRP class=Y
sequence_input=RRIRGRPPRLPRPRPRPHCNPRP class=Y
sequence_input=RRIRKRPPRLPRPRPRPKLWPRP class=Y

###

List of shrunken log2 fold change values.
# Tested on: Escherichia coli TOP10;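 further: peptides expressed intracellularly from a pBAD plasmid library in pooled LB shake-flask culture, induced with 0.3% L-arabinose, DNA abundance read by NGS, three biological replicates, DESeq2 with apeglm shrinkage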
# Assay Protocol: shrunken log2 fold change of peptide-encoding DNA abundance (4.5 h post-induction vs induction); higher = less antimicrobial activity (less host growth inhibition)
# Assay Setup: time post-induction: 4.5 h; library: site-saturation at positions 5, 18, 19, 20
Assay Metric: shrunken log2 fold change

sequence_input=RRIRMRPPRLPRPRPRPQNMPRP subject_of_test="Escherichia coli TOP10" recorded_result=-0.631
sequence_input=RRIRARPPRLPRPRPRPGKDPRP subject_of_test="Escherichia coli TOP10" recorded_result=0.36
sequence_input=RRIRRRPPRLPRPRPRPHYEPRP subject_of_test="Escherichia coli TOP10" recorded_result=-0.508
sequence_input=RRIRARPPRLPRPRPRPTPQPRP subject_of_test="Escherichia coli TOP10" recorded_result=0.745
sequence_input=RRIRKRPPRLPRPRPRPYRTPRP subject_of_test="Escherichia coli TOP10" recorded_result=-0.224
sequence_input=RRIRKRPPRLPRPRPRPCEEPRP subject_of_test="Escherichia coli TOP10" recorded_result=0.56
sequence_input=RRIRMRPPRLPRPRPRPQAMPRP subject_of_test="Escherichia coli TOP10" recorded_result=0.318
sequence_input=RRIRGRPPRLPRPRPRPIGIPRP subject_of_test="Escherichia coli TOP10" recorded_result=-0.159
sequence_input=RRIRNRPPRLPRPRPRPLWHPRP subject_of_test="Escherichia coli TOP10" recorded_result=-0.185
sequence_input=RRIRCRPPRLPRPRPRPKGGPRP subject_of_test="Escherichia coli TOP10" recorded_result=0.094
sequence_input=RRIRDRPPRLPRPRPRPGMEPRP subject_of_test="Escherichia coli TOP10" recorded_result=0.784
sequence_input=RRIRPRPPRLPRPRPRPKNLPRP subject_of_test="Escherichia coli TOP10" recorded_result=-0.0674
sequence_input=RRIRKRPPRLPRPRPRPCQEPRP subject_of_test="Escherichia coli TOP10" recorded_result=-0.0342
sequence_input=RRIRIRPPRLPRPRPRPEAYPRP subject_of_test="Escherichia coli TOP10" recorded_result=0.00489
sequence_input=RRIRNRPPRLPRPRPRPHLTPRP subject_of_test="Escherichia coli TOP10" recorded_result=-0.0934

FYI, the data here is from the supplement of paper PMC9112550.
